// data source = patent US10118947B2

# study-system: human plasma Kallikrein (Homo sapiens, UniProt P03952)
# Construct: purchased Stratech, UK
# Sequence (P03952 20-638): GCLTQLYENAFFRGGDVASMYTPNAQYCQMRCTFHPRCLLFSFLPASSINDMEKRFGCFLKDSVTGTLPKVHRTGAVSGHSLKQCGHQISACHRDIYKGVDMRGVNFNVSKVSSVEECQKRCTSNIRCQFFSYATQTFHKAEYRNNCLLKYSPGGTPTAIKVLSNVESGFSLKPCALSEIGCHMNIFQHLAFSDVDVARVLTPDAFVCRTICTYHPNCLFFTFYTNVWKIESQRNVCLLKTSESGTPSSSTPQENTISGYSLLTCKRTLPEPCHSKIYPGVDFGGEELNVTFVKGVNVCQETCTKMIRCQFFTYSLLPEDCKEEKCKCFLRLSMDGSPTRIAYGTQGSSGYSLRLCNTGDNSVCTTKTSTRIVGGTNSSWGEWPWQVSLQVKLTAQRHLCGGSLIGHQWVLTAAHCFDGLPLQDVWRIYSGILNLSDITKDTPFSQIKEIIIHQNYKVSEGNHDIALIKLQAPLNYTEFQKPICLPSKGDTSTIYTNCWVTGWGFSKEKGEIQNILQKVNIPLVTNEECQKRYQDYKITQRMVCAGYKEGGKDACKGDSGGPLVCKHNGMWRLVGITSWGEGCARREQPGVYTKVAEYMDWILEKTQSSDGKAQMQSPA
# protocol-description: Functional enzyme inhibition assay with fluorogenic substrate Z-PheArg-AMC, human plasma Kallikrein
# Assay type: biochemical
# applied-conditions: Table 24b, residue 7 modifications; read-out: Ki
# Experimental: Functional enzyme assays were conducted in 10 mM Tris HCl, 150 mM NaCl, 10 mM MgCl2, 1 mM CaCl2) and 1 mg/mL BSA (all Sigma UK) pH7.4 at 25° C. in solid black 96 well plates. […] Release of AMC was measured using a Pherastar FS (BMG Labtech), excitation 360 nm, emission 460 nm. The rate of the linear phase of the reaction, typically 5 to 45 minutes, was calculated in MARS data analysis software (BMG labtech). […]
Numbered stars: 1 amine (or outer) side, 2 acyl side, 3 side chain; on linkers, the order of the positions; unused ones are H or OH. Bridge positions count the residues as written; N and C are the ends. Square brackets hold non-standard residues; d marks the D form. Peptide text beside a SMILES is read from it. His(τ-Me) = Cn1cnc(C[C@H](N)C(=O)O)c1; TBMB = c1c(C[*:1])cc(C[*:3])cc1C[*:2]; His(π-Me) = Cn1cncc1C[C@H](N)C(=O)O; 4Pal = N[C@@H](Cc1ccncc1)C(=O)O; Dap = NC[C@H](N)C(=O)O
The reader will find reported Ki values listed item by item below.
Output spec: scalar in nM, unitless text.

compound: CC(=O)N[C@H]1CSCc2cc3cc(c2)CSC[C@H](NC(=O)[C@H](CCCNC(=N)N)NC(=O)[C@H](Cc2ccc(O)cc2)NC(=O)[C@@H]2CCCN2C(=O)[C@H](Cc2ccccc2)NC(=O)[C@H](CO)NC1=O)C(=O)N[C@@H](CC(C)C)C(=O)N[C@@H](Cc1cncn1C)C(=O)N[C@@H](CCC(N)=O)C(=O)N[C@@H](CC(=O)O)C(=O)N[C@@H](CC(C)C)C(=O)N[C@H](C(N)=O)CSC3 [Ac-(06-34-18) Phe2 Tyr4 His3Me7] (Ac-CSFPYRCL[His(π-Me)]QDLC-NH2; linker 1-7-13 via TBMB)
measure-unit: nM
numeric-result: 292

compound: CC(=O)N[C@H]1CSCc2cc3cc(c2)CSC[C@H](NC(=O)[C@H](CCCNC(=N)N)NC(=O)[C@H](Cc2ccc(O)cc2)NC(=O)[C@@H]2CCCN2C(=O)[C@H](Cc2ccccc2)NC(=O)[C@H](CO)NC1=O)C(=O)N[C@@H](CC(C)C)C(=O)N[C@@H](CN)C(=O)N[C@@H](CCC(N)=O)C(=O)N[C@@H](CC(=O)O)C(=O)N[C@@H](CC(C)C)C(=O)N[C@H](C(N)=O)CSC3 [Ac-(06-34-18) Phe2 Tyr4 Dap7] (Ac-CSFPYRCL[Dap]QDLC-NH2; linker 1-7-13 via TBMB)
measure-unit: nM
numeric-result: 246

compound: CC(=O)N[C@H]1CSCc2cc3cc(c2)CSC[C@H](NC(=O)[C@H](CCCNC(=N)N)NC(=O)[C@H](Cc2ccc(O)cc2)NC(=O)[C@@H]2CCCN2C(=O)[C@H](Cc2ccccc2)NC(=O)[C@H](CO)NC1=O)C(=O)N[C@@H](CC(C)C)C(=O)N[C@@H](Cc1ccncc1)C(=O)N[C@@H](CCC(N)=O)C(=O)N[C@@H](CC(=O)O)C(=O)N[C@@H](CC(C)C)C(=O)N[C@H](C(N)=O)CSC3 [Ac-(06-34-18) Phe2 Tyr4 4Pal7] (Ac-CSFPYRCL[4Pal]QDLC-NH2; linker 1-7-13 via TBMB)
measure-unit: nM
numeric-result: 79

Could you now consider this next compound?
// query Give the measured Ki for CC(=O)N[C@H]1CSCc2cc3cc(c2)CSC[C@H](NC(=O)[C@H](CCCNC(=N)N)NC(=O)[C@H](Cc2ccc(O)cc2)NC(=O)[C@@H]2CCCN2C(=O)[C@H](Cc2ccccc2)NC(=O)[C@H](CO)NC1=O)C(=O)N[C@@H](CC(C)C)C(=O)N[C@@H](Cc1cn(C)cn1)C(=O)N[C@@H](CCC(N)=O)C(=O)N[C@@H](CC(=O)O)C(=O)N[C@@H](CC(C)C)C(=O)N[C@H](C(N)=O)CSC3 [Ac-(06-34-18) Phe2 Tyr4 His1Me7] (Ac-CSFPYRCL[His(τ-Me)]QDLC-NH2; linker 1-7-13 via TBMB)
// result 10
